# assay-text: Intravenous and oral dosing pharmacokinetic screen, plasma concentration by LC/MS/MS
# Parameters: species or system C57BL/6 mice
# applied-conditions: male, C57BL/6, mouse, in vivo, po, 10 mg/kg, Tucaresol concentration, Mean
measured-quantity: concentration at 8 h (ng/mL)
Write down the numeric answer in ng/mL and omit the unit.

Sample `O=Cc1c(O)cccc1OCc1ccc(C(=O)O)cc1` ; concentration at 8 h observed: 190

---

# assay-text: Intravenous and oral dosing pharmacokinetic screen, plasma concentration by LC/MS/MS
# Set-up: species or system C57BL/6 mice
# applied-conditions: male, C57BL/6, mouse, in vivo, po, 10 mg/kg, Tucaresol concentration
measured-quantity: concentration at 1 h
Answer as a quantity: numeral, then unit.

Sample `O=Cc1c(O)cccc1OCc1ccc(C(=O)O)cc1` ; concentration at 1 h observed: 1870 ng/mL

---

# assay-text: Intravenous and oral dosing pharmacokinetic screen, plasma concentration by LC/MS/MS
# Parameters: species or system C57BL/6 mice
# applied-conditions: male, C57BL/6, mouse, in vivo, iv, 3 mg/kg, B02 concentration, Mean
measured-quantity: concentration at 0.5 h (µg/mL)
Write down the numeric answer in µg/mL and omit the unit.

Sample `CO/N=C/c1c(O)cccc1OCc1ccc(C(=O)O)cc1` ; concentration at 0.5 h observed: 0.283

---

# assay-text: Pharmacokinetics of tucaresol after a single dose in healthy subjects
# applied-conditions: human, plasma, 1200 mg, t1/2,z, Mean; single dose 1200 mg
measured-quantity: half-life (days)
Write down the numeric answer in days and omit the unit.

Sample `O=Cc1c(O)cccc1OCc1ccc(C(=O)O)cc1` ; half-life observed: 8.12

---

# assay-text: Intravenous and oral dosing pharmacokinetic screen, plasma concentration by LC/MS/MS
# Set-up: species or system C57BL/6 mice
# applied-conditions: male, C57BL/6, mouse, in vivo, iv, 3 mg/kg, Compound C02 concentration, Mean
measured-quantity: concentration at 0.083 h (ng/mL)
Write down the numeric answer in ng/mL and omit the unit.

Sample O=Cc1c(OCc2ccc(C(=O)O)cc2)cccc1OC1O[C@H](CO)[C@@H](O)[C@H](O)[C@H]1O (stereo partly shown) ; concentration at 0.083 h observed: 2390

---

# assay-text: Pharmacokinetics of tucaresol after a single dose in healthy subjects
# applied-conditions: human, plasma, 1200 mg, Cmax; single dose 1200 mg; single subjects
measured-quantity: Cmax (ng/mL)
Write down the numeric answer in ng/mL and omit the unit.

Sample O=Cc1c(O)cccc1OCc1ccc(C(=O)O)cc1 [Tucaresol] ; Cmax observed: 40400
